Values were extracted from paper PMC6792352.

test: in vitro; conditions: rat, gh3-tre-luc cells, AC50 (uM) modified / 1000
measure: CC50 at 24 h

compound | measure | testValue
CCCCCC(C)OC(=O)COc1ccc(Cl)c2cccnc12 (stereo not drawn) | CC50 at 24 h | 71.4 µM
COCN(COC)c1nc(N(COC)COC)nc(N(COC)COC)n1 | CC50 at 24 h | > 90 µM
CCCCCOC(=O)COc1cc(N2C(=O)C3=C(CCCC3)C2=O)c(F)cc1Cl | CC50 at 24 h | > 90 µM
COc1ccc(/C=C/C(=O)O)cc1 | CC50 at 24 h | > 50 µM
CC(C)CNCC(C)C | CC50 at 24 h | > 90 µM
CC(=O)Oc1ccc(C)cc1 [4-Tolyl acetate] | CC50 at 24 h | > 90 µM
CN(C)S(=O)(=O)N(SC(F)(Cl)Cl)c1ccccc1 | CC50 at 24 h | 1.43 µM
Oc1c(Cl)c(Cl)c(Cl)c(Cl)c1Cl | CC50 at 24 h | 34.5 µM
N=C(N)NN=C1C=CC(=NNC(N)=S)C=C1 | CC50 at 24 h | 23 µM
Oc1cccc2ccccc12 | CC50 at 24 h | > 90 µM
CC(C)=CCC[C@](C)(O)[C@@H]1CC=C(C)CC1 | CC50 at 24 h | > 90 µM
O=C(CS)OCCOC(=O)CS [Ethane-1,2-diyl bis(sulfanylacetate)] | CC50 at 24 h | > 90 µM
Sc1ncccn1 | CC50 at 24 h | > 90 µM
Cc1cccc(O)c1N | CC50 at 24 h | 66.6 µM
COC(=O)[C@H]1[C@H]2C[C@@H]3c4[nH]c5cc(OC)ccc5c4CCN3C[C@H]2C[C@@H](OC(=O)/C=C/c2cc(OC)c(OC)c(OC)c2)[C@@H]1OC | CC50 at 24 h | > 20 µM
c1ccc2c(c1)Cc1ccccc1-2 | CC50 at 24 h | > 90 µM
CC(=O)CC(=O)Nc1ccc2[nH]c(=O)[nH]c2c1 | CC50 at 24 h | > 90 µM
COc1cc(/C=C/C(=O)O[C@H]2CC[C@]34C[C@]35CC[C@]3(C)[C@@H]([C@H](C)CCC=C(C)C)CC[C@@]3(C)[C@@H]5CC[C@H]4C2(C)C)ccc1O | CC50 at 24 h | > 50 µM
N#Cc1cc2ccccc2c2ccccc12 | CC50 at 24 h | > 90 µM
CN(Cc1ccccc1)Cc1ccccc1 | CC50 at 24 h | > 50 µM
CCOC(=O)C(SP(=S)(OC)OC)c1ccccc1 (stereo not drawn) [Phenthoate] | CC50 at 24 h | > 90 µM

====

system: GH3-TRE-Luc cell line; conditions: read-out: AC50 (uM) modified / 1000; Tox21_110001=Tox21_110742; viability, 1 nM T3 present, 24 h

molecule | CC50 (µM)
N=C(N)c1ccc(OCCCCCOc2ccc(C(=N)N)cc2)cc1 [Pentamidine isethionate] | 23.4

====

test: in vitro; conditions: rat, gh3-tre-luc cells, AC50 (uM) modified / 1000
Where a name gives a salt, the structure may show the parent alone.
measure: CC50 at 24 h

compound | testValue
C/C=C(\C)C(=O)OCc1ccccc1 [Benzyl tiglate] | > 90 µM
CCN(CC)c1ccc2c(C)cc(=O)oc2c1 [7-Diethylamino-4-methylcoumarin] | > 90 µM
C[C@H](CCCC(C)(C)O)[C@H]1CC[C@H]2[C@@H]3CC=C4C[C@@H](O)CC[C@]4(C)[C@H]3CC[C@]12C [25-Hydroxycholesterol] | > 50 µM
Cc1ccc(O)c(-n2nc3ccccc3n2)c1 [2-(2H-Benzotriazol-2-yl)-4-methylphenol] | > 90 µM
C[C@@H]1CC[C@H]2[C@@H](C)C(=O)O[C@@H]3O[C@@]4(C)CC[C@@H]1[C@]32OO4 [Artemisinin] | 4.4 µM
Clc1ccc(Cl)c(Cl)c1 [1,2,4-Trichlorobenzene] | > 90 µM
CCOC(=O)/C=C/C(=O)OCC [Diethyl (2E)-but-2-enedioate] | > 90 µM
CCc1ccccc1N [2-Ethylaniline] | > 90 µM
C/C=C1\NC(=O)[C@H]2CSSCC/C=C/[C@H](CC(=O)N[C@H](C(C)C)C(=O)N2)OC(=O)[C@H](C(C)C)NC1=O [Romidepsin] | 0.0269 µM
CN(C)CCc1c[nH]c2ccccc12 [N,N-Dimethyltryptamine fumarate] | > 100 µM
CCCCCCCCCCCC(=O)OC [Methyl dodecanoate] | > 90 µM
CCCCCCCCCCCBr [1-Bromoundecane] | > 50 µM
CC(C)=CCC/C(C)=C/C=N/O [Citral oxime] | > 90 µM
Cn1c(=O)c2c(ncn2CC(O)CO)n(C)c1=O (centres unmarked) [Dyphylline] | > 20 µM
O=c1[nH]c(=O)n([C@H]2C[C@H](O)[C@@H](CO)O2)cc1I [Idoxuridine] | > 20 µM
Clc1ccnc(Cl)n1 [2,4-Dichloropyrimidine] | > 90 µM
c1ccc(Nc2ccccc2)cc1 [Diphenylamine] | > 90 µM
NC(=O)c1ncn([C@@H]2O[C@H](CO)[C@@H](O)[C@H]2O)c1O [Mizoribine] | > 50 µM
CN1CCN(CCCN2c3ccccc3Sc3ccc(Cl)cc32)CC1 [Prochlorperazine dimaleate] | 5.73 µM
OC(Cn1cncn1)(c1ccc(F)cc1)c1ccccc1F (centres unmarked) [Flutriafol] | > 90 µM

====

system: GH3-TRE-Luc cell line; settings: read-out: AC50 (uM) modified / 1000; Tox21_110001=Tox21_301634; viability, 1 nM T3 present, 24 h

compound | CC50
O=C1OC2(c3ccccc31)c1cc(I)c(O)c(I)c1Oc1c2cc(I)c(O)c1I [Erythrosin B] | 19.8 µM

====

assay: in vitro; details: rat, gh3-tre-luc cells, AC50 (uM) modified / 1000

molecule | CC50 at 24 h
C[C@@H]1C[C@H]2[C@@H]3CCC4=CC(=O)C=C[C@]4(C)[C@@]3(Cl)[C@@H](O)C[C@]2(C)[C@@]1(OC(=O)c1ccco1)C(=O)CCl [Mometasone furoate] | > 20 µM
COc1c(N2CCNC(C)C2)c(F)cc2c(=O)c(C(=O)O)cn(C3CC3)c12 (centres unmarked) | > 50 µM
CC[C@H]1OC(=O)[C@H](C)[C@@H](O[C@H]2C[C@@](C)(OC)[C@@H](O)[C@H](C)O2)[C@H](C)[C@@H](O[C@@H]2O[C@H](C)C[C@H](N(C)C)[C@H]2O)[C@](C)(O)C[C@@H](C)CN(C)[C@H](C)[C@@H](O)[C@]1(C)O | 28.3 µM
COc1ccc([C@@H]2CC(=O)c3c(O)cc(O[C@@H]4O[C@H](CO[C@@H]5O[C@@H](C)[C@H](O)[C@@H](O)[C@H]5O)[C@@H](O)[C@H](O)[C@H]4O)cc3O2)cc1O | > 20 µM
Cc1ccc(N(SC(F)(Cl)Cl)S(=O)(=O)N(C)C)cc1 | 3.13 µM
O=[N+]([O-])c1ccc2ncccc2c1 | > 90 µM
CCCCCCCCSCCO [2-Hydroxyethyl octyl sulfide] | > 90 µM
CCCC(Cn1cncn1)c1ccc(Cl)cc1Cl (centres unmarked) | 78.4 µM

====

test: in vitro; conditions: rat, gh3-tre-luc cells, AC50 (uM) modified / 1000
Structures can show the parent of a compound that is named as a salt.
Known CC50 at 24 h of a selection of compounds

compound | CC50 at 24 h
CCCC(CCC)C(N)=O [Valpromide] | > 50 µM
CN[C@H]1CC[C@@H](c2ccc(Cl)c(Cl)c2)c2ccc(S(N)(=O)=O)cc21 | 4.55 µM
OC(CCl)CCl | > 90 µM
C=C[Si](OCC)(OCC)OCC | > 90 µM
CC(=O)OCC(=O)[C@@]12N=C(C)O[C@@H]1C[C@H]1[C@@H]3CCC4=CC(=O)C=C[C@]4(C)[C@H]3[C@@H](O)C[C@@]12C | > 90 µM
COc1cc2c(cc1OC)CC(=O)N(CCCN(C)C[C@H]1Cc3cc(OC)c(OC)cc31)CC2 [Ivabradine hydrochloride] | > 50 µM
CCN1CC(CCN2CCOCC2)C(c2ccccc2)(c2ccccc2)C1=O (stereo not shown) [Doxapram hydrochloride] | > 50 µM
CCNCCO [2-(Ethylamino)ethanol] | > 90 µM
OC12N=C(c3ccccc3)SC1Cc1cc(Cl)ccc12 (stereo not shown) | 56.9 µM
Nc1ccc(S(=O)(=O)Nc2nccs2)cc1 | > 50 µM

====

assay: in vitro; conditions: rat, gh3-tre-luc cells, AC50 (uM) modified / 1000, Tox21_110001=Tox21_300739; viability, 1 nM T3 present, 24 h

compound | CC50 at 24 h
COc1cc(Cl)c(OC)cc1Cl [Chloroneb] | > 90 µM
